tested on: Plasmodium falciparum; assay: Primary screen in NF54 nanoGlo assay, in single point, at 2uM, 72h; type: functional, Erythrocyte; conditions: timepoint 72 hour
The whole screen tested about 150,000 compounds, of which about 540 (0.36%) showed an effect of 50% or more. The list comes from a sample in which strong results are over-represented; it also holds close analogues and randomly drawn compounds.
property-measured: % Inhibition (%)
Give the value in % but do not write % after it.

Worked examples follow.
Record summary for "Cc1c([C@@H](NCc2ncccc2O)C(C)C)oc2ccccc12" : reported % Inhibition = 97

Recorded result, "Cc1c([C@@H](NCC(=O)N2CCC(C(N)=O)CC2)C(C)C)oc2ccccc12" , % Inhibition: -13

Notebook: "Cc1nc(C(=O)Nc2[nH]c(=O)ncc2F)c(-c2ccccc2)o1" , % Inhibition read as 80

response.value for "Cc1c([C@H](C)NCc2cncnc2)oc2ccccc12" (field: % Inhibition) = -15

The reported % Inhibition of the molecule "O=C(Nc1[nH]c(=O)ncc1F)c1coc(-c2ccccc2)n1" was 80

More entries:
Consider "C[C@H](Nc1nc(N2CCCCC2)nc2ccccc12)c1ccccc1" . Its measured % Inhibition is 40

Briefly, % Inhibition measured for "COc1nccnc1NCC1(N(C)C)CCCCC1" : 2

Entry "CC(C)c1nc(C(=O)Nc2[nH]nc(C3CC3)c2C#N)cs1" , % Inhibition reported as -25
